tested on: Mycobacterium tuberculosis; assay: microbe, parasite or virus in culture; details: isolate Praha 1, 336 h
endpoint_name: MIC (µM)
Give bare numbers, in µM.

smiles_string: CCNC(=O)Oc1ccc(Cl)cc1C(=O)Nc1ccc(Cl)c(Cl)c1
unit_spec: µM
MIC: 0.5

# map each molecule to its MIC
1. CCCCNC(=O)Oc1ccc(Cl)cc1C(=O)Nc1ccc(Cl)c(Cl)c1
2. CCCCCNC(=O)Oc1ccc(Cl)cc1C(=O)Nc1ccc(Cl)cc1

## Result
1. 0.5
2. 1
